The values you see were collected from paper PMC3898920.

assay: Steady-state plasma pharmacokinetics of rifabutin and 25-O-desacetylrifabutin, alone and with lopinavir/ritonavir; details: human, plasma, oral, Cmin n = 15, rifabutin 150 mg OD with lopinavir/ritonavir; end of dosing interval 24 h; median (range)
readout: concentration at 24 h (ng/mL)
Reply with just the number (in ng/mL).

Value of measured concentration at 24 h for the entry CO[C@H]1/C=C/O[C@@]2(C)Oc3c(C)c(O)c4c(c3C2=O)C2=NC3(CCN(CC(C)C)CC3)NC2=C(NC(=O)/C(C)=C\C=C\[C@H](C)[C@H](O)[C@@H](C)[C@@H](O)[C@@H](C)[C@H](OC(C)=O)[C@@H]1C)C4=O : 161
